biological target: T1, CD47 on CCRF-CEM cells (human, UniProt Q08722 19-323); experiment: flow cytometry on antibody-opsonized CCRF-CEM cells, anti-human Alexa 647 secondary, median fluorescence, sigmoidal fit
T1 construct: Target is CD47 carried by the CD47-positive cell line CCRF-CEM; also called Cluster of Differentiation 47; integrin-associated protein
T1 sequence (Q08722 19-323): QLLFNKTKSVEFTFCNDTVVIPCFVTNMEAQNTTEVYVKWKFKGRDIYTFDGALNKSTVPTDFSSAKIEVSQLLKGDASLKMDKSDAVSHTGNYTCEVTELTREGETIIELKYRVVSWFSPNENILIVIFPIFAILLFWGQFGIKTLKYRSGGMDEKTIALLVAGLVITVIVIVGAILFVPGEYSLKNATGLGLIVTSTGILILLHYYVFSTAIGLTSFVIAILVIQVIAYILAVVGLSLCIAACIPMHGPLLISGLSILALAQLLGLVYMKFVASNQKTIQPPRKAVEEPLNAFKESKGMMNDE
Listing of entries alongside the reported EC50.
endpoint_name: EC50 (µg/mL)

binder="Ab495/Ab356 (LC Ab495, HC Ab356) anti-CD47 antibody (antibody, V domains shown, Framework variant of AbParental) VH: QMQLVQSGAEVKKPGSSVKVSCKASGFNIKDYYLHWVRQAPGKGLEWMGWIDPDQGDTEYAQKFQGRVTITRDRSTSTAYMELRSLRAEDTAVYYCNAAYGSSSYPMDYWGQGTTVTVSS VL: NIQMTQSPSSLSASVGDRVTITCKASQDIHRYLSWYQQKPGKAPKHLIYRANRLVSGVPSRFSGSGSGTEFTLTISSLQPEDFATYYCLQYDEFPYTFGGGTKVEIK" result_unit=µg/mL meas_value=0.035
binder="AbParental, parental anti-CD47 antibody (antibody, human IgG4 S228P, kappa, V domains shown, Parental anti-CD47 antibody, described in WO 2013/119714 A1; also called Parental LC-HC; parental antibody) VH: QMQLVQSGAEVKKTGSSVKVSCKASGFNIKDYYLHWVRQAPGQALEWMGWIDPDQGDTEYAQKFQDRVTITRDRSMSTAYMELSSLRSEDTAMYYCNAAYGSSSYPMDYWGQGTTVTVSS VL: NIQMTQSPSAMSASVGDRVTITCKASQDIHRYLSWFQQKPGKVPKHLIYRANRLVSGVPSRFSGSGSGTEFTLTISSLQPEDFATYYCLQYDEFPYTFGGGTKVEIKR" result_unit=µg/mL meas_value=0.014
binder="Ab495/Ab480 (LC Ab495, HC Ab480) anti-CD47 antibody (antibody, V domains shown, Framework variant of AbParental) VH: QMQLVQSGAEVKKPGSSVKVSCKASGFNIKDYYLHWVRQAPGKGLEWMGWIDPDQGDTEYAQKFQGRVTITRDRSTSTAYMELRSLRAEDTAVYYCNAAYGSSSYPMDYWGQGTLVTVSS VL: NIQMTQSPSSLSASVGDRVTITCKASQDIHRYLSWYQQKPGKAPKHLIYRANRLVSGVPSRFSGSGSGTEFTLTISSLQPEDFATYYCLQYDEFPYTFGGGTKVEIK" result_unit=µg/mL meas_value=0.066
